Answer each item with its documented inhibition of uptake of aggregated tau into human iPSC-derived neurons.
target: full length pHrodo-labelled aggregated (P301S) 2N4R tau (human, UniProt P10636 1-758, labelled with pHrodo Red Maleimide); test: cell-based or functional assay; further: test concentration or dose not given here
Sequence (P10636 other isoform, or with tags, fused parts or gaps P301S P301S): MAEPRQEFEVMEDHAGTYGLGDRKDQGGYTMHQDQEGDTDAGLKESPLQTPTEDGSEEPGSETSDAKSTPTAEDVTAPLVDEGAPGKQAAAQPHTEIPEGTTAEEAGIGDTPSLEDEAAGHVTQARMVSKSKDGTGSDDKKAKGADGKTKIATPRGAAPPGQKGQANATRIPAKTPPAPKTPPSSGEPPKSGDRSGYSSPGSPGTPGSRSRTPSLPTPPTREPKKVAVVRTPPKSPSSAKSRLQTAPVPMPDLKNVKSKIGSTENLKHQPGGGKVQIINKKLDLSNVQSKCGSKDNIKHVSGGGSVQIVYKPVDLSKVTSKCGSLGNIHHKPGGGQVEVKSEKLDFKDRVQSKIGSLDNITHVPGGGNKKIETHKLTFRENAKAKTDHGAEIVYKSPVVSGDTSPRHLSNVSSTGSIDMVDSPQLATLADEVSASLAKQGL
Hi! Could you send only the number? It should be in % inhibition, unit omitted.

Complete the entry with inhibition of uptake of aggregated tau into human iPSC-derived neurons for Clone 24 (VH3Vκ4), humanised variant of clone #28, human IgG1 (antibody, V domains shown, also called VH3VK4; VH3Vk4) VH: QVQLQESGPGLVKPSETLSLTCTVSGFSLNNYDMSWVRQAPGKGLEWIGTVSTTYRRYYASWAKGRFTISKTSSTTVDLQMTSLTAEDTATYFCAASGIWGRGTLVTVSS VL: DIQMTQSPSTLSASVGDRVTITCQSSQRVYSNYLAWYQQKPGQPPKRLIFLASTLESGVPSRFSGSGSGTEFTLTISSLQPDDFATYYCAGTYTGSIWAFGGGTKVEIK
61.4

Provide inhibition of uptake of aggregated tau into human iPSC-derived neurons value for the following binder: Clone 28 (VH4Vκ4), humanised variant of clone #28, human IgG1 (antibody, V domains shown, also called VH4VK4; VH4Vk4) VH: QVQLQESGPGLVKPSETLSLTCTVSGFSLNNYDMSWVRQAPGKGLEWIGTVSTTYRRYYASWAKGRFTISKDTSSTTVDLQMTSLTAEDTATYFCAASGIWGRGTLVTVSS VL: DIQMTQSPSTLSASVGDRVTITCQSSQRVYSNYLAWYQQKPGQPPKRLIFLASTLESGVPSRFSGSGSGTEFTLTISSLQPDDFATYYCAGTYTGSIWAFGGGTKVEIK
58.7

// Input: Clone 31 (VH5Vκ2), humanised variant of clone #28, human IgG1 (antibody, V domains shown, also called VH5VK2; VH5Vk2) VH: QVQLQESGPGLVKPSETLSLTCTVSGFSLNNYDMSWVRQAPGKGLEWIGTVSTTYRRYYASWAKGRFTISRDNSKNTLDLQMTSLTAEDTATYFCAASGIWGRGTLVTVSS VL: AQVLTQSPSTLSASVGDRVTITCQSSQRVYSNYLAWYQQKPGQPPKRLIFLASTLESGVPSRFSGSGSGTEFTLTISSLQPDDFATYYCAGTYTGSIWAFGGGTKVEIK . Output its inhibition of uptake of aggregated tau into human iPSC-derived neurons only.
57.2

Sourced from patent US20220265819A1
